CONDITION DESCRIPTION: in isobutanol, 293.65 K
VALUE TYPE: solubility (mole fraction)

Find the recorded solubility (mole fraction) belonging to Cc1ccc(S(N)(=O)=O)cc1 and report it. 0.0103

* * *

CONDITION DESCRIPTION: in isopentanol, 303.65 K
VALUE TYPE: solubility (mole fraction)
Field format: numeric only.

For the compound Cc1ccc(S(N)(=O)=O)cc1 , what solubility (mole fraction) is on record? 0.0168

* * *

CONDITION DESCRIPTION: in methyl acetate, 319.15 K
VALUE TYPE: solubility (mole fraction)
Answer field: number only, no words.

Given Cc1ccc(S(N)(=O)=O)cc1 , state its recorded solubility (mole fraction). 0.132

* * *

CONDITION DESCRIPTION: in isopropanol, 303.25 K
VALUE TYPE: solubility (mole fraction)

Look at this compound and give its reported solubility (mole fraction). Cc1ccc(S(N)(=O)=O)cc1 0.0246

* * *

CONDITION DESCRIPTION: in isopentanol, 309.15 K
VALUE TYPE: solubility (mole fraction)
No unit in the answer, please; the number alone is enough.

Data request, read-out solubility (mole fraction), for Cc1ccc(S(N)(=O)=O)cc1 0.0204

* * *

CONDITION DESCRIPTION: in methyl acetate, 299.15 K
VALUE TYPE: solubility (mole fraction)
Give only the figure.

Name the recorded solubility (mole fraction) for Cc1ccc(S(N)(=O)=O)cc1 . 0.0833

* * *

CONDITION DESCRIPTION: in ethanol, 298.85 K
VALUE TYPE: solubility (mole fraction)

Item under review: Cc1ccc(S(N)(=O)=O)cc1 . Reported solubility (mole fraction)? 0.0361

* * *

CONDITION DESCRIPTION: in isopropanol, 308.95 K
VALUE TYPE: solubility (mole fraction)
API doc: respond with a numeric literal and nothing else, no unit.

What value of measured solubility (mole fraction) is listed for Cc1ccc(S(N)(=O)=O)cc1 ? 0.0301

* * *

CONDITION DESCRIPTION: in ethanol, 289.15 K
VALUE TYPE: solubility (mole fraction)
Note: the reply should be a number with no unit written.

Request the reported solubility (mole fraction) associated with Cc1ccc(S(N)(=O)=O)cc1 0.0268

* * *

CONDITION DESCRIPTION: in methanol, 283.65 K
VALUE TYPE: solubility (mole fraction)
No unit in the answer, only the number.

Name the reported solubility (mole fraction) value associated with the compound Cc1ccc(S(N)(=O)=O)cc1 0.0415

* * *

CONDITION DESCRIPTION: in dichloromethane, 309.15 K
VALUE TYPE: solubility (mole fraction)
Respond numerically, and do not add a unit to the figure.

Please report the recorded solubility (mole fraction) for Cc1ccc(S(N)(=O)=O)cc1 . 0.0128

* * *

CONDITION DESCRIPTION: in ethyl formate, 309.15 K
VALUE TYPE: solubility (mole fraction)
// keep it numeric: no unit symbol after the value

Recorded solubility (mole fraction) for Cc1ccc(S(N)(=O)=O)cc1 , please? 0.0582

* * *

CONDITION DESCRIPTION: in isobutanol, 322.15 K
VALUE TYPE: solubility (mole fraction)
Give only the figure.

Query (molecule): Cc1ccc(S(N)(=O)=O)cc1 ; field requested: solubility (mole fraction) 0.0357

* * *

CONDITION DESCRIPTION: in n-pentanol, 289.15 K
VALUE TYPE: solubility (mole fraction)
Give the figure only, with no unit attached.

For Cc1ccc(S(N)(=O)=O)cc1 , what is its reported solubility (mole fraction)? 0.0107

* * *

CONDITION DESCRIPTION: in n-propanol, 303.25 K
VALUE TYPE: solubility (mole fraction)
Answer using only a numeral; do not append any unit.

// returns reported solubility (mole fraction) for input Cc1ccc(S(N)(=O)=O)cc1 0.0259

* * *

CONDITION DESCRIPTION: in n-butanol, 303.25 K
VALUE TYPE: solubility (mole fraction)
Write the value as a bare number.

Dear colleague, I am looking for the recorded solubility (mole fraction) of the following molecule: Cc1ccc(S(N)(=O)=O)cc1 0.0209

* * *

CONDITION DESCRIPTION: in isobutanol, 283.65 K
VALUE TYPE: solubility (mole fraction)
Would you mind answering with just the numeric figure?

Which solubility (mole fraction) value belongs to Cc1ccc(S(N)(=O)=O)cc1 ? 0.0069

* * *

CONDITION DESCRIPTION: in methyl acetate, 294.15 K
VALUE TYPE: solubility (mole fraction)
Provide a numeric answer; units are not to be included.

Request the reported solubility (mole fraction) associated with Cc1ccc(S(N)(=O)=O)cc1 0.075

* * *

CONDITION DESCRIPTION: in n-propanol, 298.85 K
VALUE TYPE: solubility (mole fraction)
# print the numeric value only

So what's the measured solubility (mole fraction) for this one? Cc1ccc(S(N)(=O)=O)cc1 0.0215

* * *

CONDITION DESCRIPTION: in cyclopentanone, 299.15 K
VALUE TYPE: solubility (mole fraction)
Hey, just send me the number, nothing else.

Quick check: solubility (mole fraction) of Cc1ccc(S(N)(=O)=O)cc1 ? 0.196

* * *

CONDITION DESCRIPTION: in methanol, 298.85 K
VALUE TYPE: solubility (mole fraction)
Answer with the value's number alone.

Item Cc1ccc(S(N)(=O)=O)cc1 has what recorded solubility (mole fraction)? 0.0626

* * *

CONDITION DESCRIPTION: in acetone, 317.65 K
VALUE TYPE: solubility (mole fraction)
Just the number, please.

Can you share its solubility (mole fraction)? I mean this compound: Cc1ccc(S(N)(=O)=O)cc1 0.227

* * *

CONDITION DESCRIPTION: in methanol, 303.25 K
VALUE TYPE: solubility (mole fraction)
Form field (numeric): enter value without unit.

Looking for the measured solubility (mole fraction) of Cc1ccc(S(N)(=O)=O)cc1 , can you help? 0.0724

* * *

CONDITION DESCRIPTION: in n-pentanol, 309.15 K
VALUE TYPE: solubility (mole fraction)
Lab note: jot down the number only; don't add units.

Would you mind telling me what solubility (mole fraction) value was observed for Cc1ccc(S(N)(=O)=O)cc1 ? 0.022

* * *

CONDITION DESCRIPTION: in n-pentanol, 294.15 K
VALUE TYPE: solubility (mole fraction)
When you answer, write just the number.

Could you share which solubility (mole fraction) value was measured for Cc1ccc(S(N)(=O)=O)cc1 ? 0.0128

* * *

CONDITION DESCRIPTION: in cyclopentanone, 273.15 K
VALUE TYPE: solubility (mole fraction)
Enter the number alone.

Look at this compound and give its reported solubility (mole fraction). Cc1ccc(S(N)(=O)=O)cc1 0.149

* * *

CONDITION DESCRIPTION: in n-propanol, 273.15 K
VALUE TYPE: solubility (mole fraction)
Please give only the number in your answer, with no unit.

Could you tell me which solubility (mole fraction) is on file for Cc1ccc(S(N)(=O)=O)cc1 ? 0.00916

* * *

CONDITION DESCRIPTION: in methanol, 317.65 K
VALUE TYPE: solubility (mole fraction)
Enter a number only.

Return reported solubility (mole fraction); argument: Cc1ccc(S(N)(=O)=O)cc1 0.112

* * *

CONDITION DESCRIPTION: in ethyl formate, 294.15 K
VALUE TYPE: solubility (mole fraction)
Number only, please.

What value of solubility (mole fraction) has been reported for the following compound? Cc1ccc(S(N)(=O)=O)cc1 0.0391

* * *

CONDITION DESCRIPTION: in ethanol, 273.15 K
VALUE TYPE: solubility (mole fraction)
Answer with the value's number alone.

Item under review: Cc1ccc(S(N)(=O)=O)cc1 . Reported solubility (mole fraction)? 0.0174

* * *

CONDITION DESCRIPTION: in methyl acetate, 284.15 K
VALUE TYPE: solubility (mole fraction)

What measured solubility (mole fraction) goes with Cc1ccc(S(N)(=O)=O)cc1 ? 0.062

* * *

CONDITION DESCRIPTION: in ethyl formate, 273.15 K
VALUE TYPE: solubility (mole fraction)

Look up solubility (mole fraction) for this molecule: Cc1ccc(S(N)(=O)=O)cc1 0.023

* * *

CONDITION DESCRIPTION: in n-butanol, 298.85 K
VALUE TYPE: solubility (mole fraction)

// solubility (mole fraction) lookup, key: Cc1ccc(S(N)(=O)=O)cc1 0.0172

* * *

CONDITION DESCRIPTION: in isopropanol, 279.15 K
VALUE TYPE: solubility (mole fraction)
Respond using a number only.

Would you kindly share the measured solubility (mole fraction) for Cc1ccc(S(N)(=O)=O)cc1 ? 0.00943

* * *

CONDITION DESCRIPTION: in methyl acetate, 313.15 K
VALUE TYPE: solubility (mole fraction)

Form field: reported solubility (mole fraction) of Cc1ccc(S(N)(=O)=O)cc1 0.115

* * *

CONDITION DESCRIPTION: in ethanol, 317.65 K
VALUE TYPE: solubility (mole fraction)
# answer = number (no unit)

What does the data say about its solubility (mole fraction)? Entry: Cc1ccc(S(N)(=O)=O)cc1 0.0705
